The measured values listed here are drawn from patent US20150004110A1.

test system: B16 melanocytes stimulated with NDP-MSH; assay: Anti-melanogenesis activity: melanin synthesis in B16 melanocytes stimulated with NDP-MSH; format: cell-based; conditions: Melanocyte; 30 μM, NDP-MSH stimulated B16, 72 h, Table 2; read-out: Standardized data Inhibition (%) (melanin)

molecule	inhibition at 30 µM, %
CC(=O)O[C@@H]1[C@@H](OC(C)=O)[C@@H](OC(C)=O)C(Oc2ccccc2CCOc2ccc(F)cc2)O[C@H]1C (some centres unmarked)	29
Cc1ccc(OCCc2ccccc2O)cc1	100
CCc1ccc(OCCc2ccccc2O)cc1	112
Oc1ccccc1CCOc1ccc(F)cc1 [Compound 1, 2-[2-(4-fluoro-phenoxy)-ethyl]-phenol]	93
Cc1cccc(CCOc2ccc(F)cc2)c1	-2

###

tested on: B16 melanocytes stimulated with NDP-MSH; assay: Anti-melanogenesis activity: melanin synthesis in B16 melanocytes stimulated with NDP-MSH; format: cell-based; conditions: Melanocyte; 30 μM, NDP-MSH stimulated B16, 72 h, Table 2; read-out: Standardized data Inhibition (%) (melanin)

compound	uom	inhibition at 30 µM
Oc1ccccc1CCOc1ccc(OCc2ccccc2)cc1 [Compound 20]	%	115
Oc1ccccc1C(O)COc1ccc(F)cc1 (stereo not shown) [Compound 24]	%	-12
Oc1ccc(OCCc2ccccc2F)cc1 [Compound 27]	%	95
Oc1ccccc1CCOc1ccc(Br)cc1 [Compound 3]	%	110
Fc1ccc(CCOc2ccccc2OCc2ccccc2)cc1 [Compound 25]	%	46
COc1ccc(OCCc2ccccc2OC)cc1 [Compound 14]	%	-22
COc1ccccc1OCC(O)c1ccccc1O (stereo not shown) [Compound 125]	%	13
Oc1ccccc1CCOc1ccc(Cl)cc1 [Compound 31]	%	109
Fc1ccc(OCCc2ccccc2C(F)(F)F)cc1 [Compound 10]	%	-11
CC(=O)OC[C@H]1OC(Oc2ccccc2CCOc2ccc(F)cc2)[C@H](OC(C)=O)[C@@H](OC(C)=O)[C@@H]1OC(C)=O (stereo partly shown) [Compound 30]	%	13

###

test system: B16 melanocytes; assay: Cell viability, MTT reduction test; type: cell-based; conditions: 100 μM, B16, 72 h, Table 2
// reported Viability (MTT) % stimulated control for each item listed
endpoint label: Viability (MTT) % stimulated control (%)

molecule	endpoint label	uom	recorded number
COc1ccc(OCCc2ccccc2OC)cc1	Viability (MTT) % stimulated control	%	80
Fc1ccc(OCCc2ccccc2C(F)(F)F)cc1	Viability (MTT) % stimulated control	%	91
CC(=O)Nc1ccc(OCCc2ccccc2OC(C)=O)cc1	Viability (MTT) % stimulated control	%	86
COc1ccccc1CCOc1ccc(F)cc1	Viability (MTT) % stimulated control	%	83
Cc1ccc(OCCc2ccccc2O)cc1	Viability (MTT) % stimulated control	%	34
Oc1ccccc1CCOc1ccc(F)cc1 [Compound 1, 2-[2-(4-fluoro-phenoxy)-ethyl]-phenol]	Viability (MTT) % stimulated control	%	22
Oc1ccccc1CCOc1ccccc1	Viability (MTT) % stimulated control	%	67
Oc1ccccc1CCOc1ccc(Br)cc1	Viability (MTT) % stimulated control	%	0
Fc1ccc(OCCc2ccccc2Br)cc1	Viability (MTT) % stimulated control	%	93
Oc1ccccc1C(O)COc1ccc(F)cc1 (centres unmarked)	Viability (MTT) % stimulated control	%	78
COc1ccc(OCCc2ccccc2O)cc1	Viability (MTT) % stimulated control	%	54
O=[N+]([O-])c1ccc(OCCc2ccccc2O)cc1	Viability (MTT) % stimulated control	%	0
COc1ccccc1C1(COc2ccc(F)cc2)CC1	Viability (MTT) % stimulated control	%	75
Cc1cccc(CCOc2ccc(F)cc2)c1	Viability (MTT) % stimulated control	%	109

###

test system: B16 melanocytes stimulated with NDP-MSH; test: Anti-melanogenesis activity: melanin synthesis in B16 melanocytes stimulated with NDP-MSH; assay type: cell-based; settings: Melanocyte; 30 μM, NDP-MSH stimulated B16, 72 h, Table 2; read-out: Standardized data Inhibition (%) (melanin)
endpoint label: inhibition at 30 µM (%)

compound	recorded number
CC(C)(C)c1ccc(OCCc2ccccc2O)cc1	116
O=[N+]([O-])c1ccc(OCCc2ccccc2O)cc1	82
CCCc1ccc(OCCc2ccccc2O)cc1	116
CCOc1ccc(OCC(O)c2ccccc2O)cc1 (centres unmarked)	47
COc1ccccc1C1(COc2ccc(F)cc2)CC1	-21
CC(C)c1ccc(OCCc2ccccc2O)cc1	119
CCC(C)(C)c1ccc(OCC(=O)c2ccccc2O)cc1	117
CCC(C)(C)c1ccc(OCCc2ccccc2O)cc1	120
CC(=O)Nc1ccc(OCCc2ccccc2OC(C)=O)cc1	-3
CC(C)c1ccc(OCC(=O)c2ccccc2O)cc1	58
COc1ccccc1CCOc1ccc(F)cc1	-33

###

system: B16 melanocytes; assay: Cell viability, MTT reduction test; assay type: cell-based; settings: 10 μM, B16, 72 h, Table 2

compound	uom	Viability (MTT) % stimulated control
CCC(C)(C)c1ccc(OCCc2ccccc2O)cc1	%	90
CC(C)(C)c1ccc(OCCc2ccccc2O)cc1	%	89
Oc1ccccc1CCOc1ccc(F)cc1 [Compound 1, 2-[2-(4-fluoro-phenoxy)-ethyl]-phenol]	%	83
Oc1ccccc1CCOc1ccc(OCc2ccccc2)cc1	%	84
CCCc1ccc(OCCc2ccccc2O)cc1	%	89
CCC(C)(C)c1ccc(OCC(=O)c2ccccc2O)cc1	%	89
Oc1ccccc1CCOc1ccc(Cl)cc1	%	104
CC(C)c1ccc(OCC(=O)c2ccccc2O)cc1	%	102
CCc1ccc(OCCc2ccccc2O)cc1	%	97
CC(C)c1ccc(OCCc2ccccc2O)cc1	%	101

###

system: B16 melanocytes; experiment: Cell viability, MTT reduction test; type: cell-based; conditions: 3 μM, B16, 72 h, Table 2
endpoint label: Viability (MTT) % stimulated control (%)

sample smiles	recorded number
Oc1ccccc1CCOc1ccc(Cl)cc1	91
CCC(C)(C)c1ccc(OCCc2ccccc2O)cc1	116
CCCc1ccc(OCCc2ccccc2O)cc1	98
CC(C)c1ccc(OCCc2ccccc2O)cc1	119
Oc1ccccc1CCOc1ccc(OCc2ccccc2)cc1	106
CC(C)(C)c1ccc(OCCc2ccccc2O)cc1	116
CCc1ccc(OCCc2ccccc2O)cc1	105

###

Listed molecules paired with reported Viability (MTT) % stimulated control
tested on: B16 melanocytes; assay: Cell viability, MTT reduction test; type: cell-based; conditions: 30 μM, B16, 72 h, Table 2

molecule	Viability (MTT) % stimulated control [%]
CC(=O)Nc1ccc(OCCc2ccccc2OC(C)=O)cc1	97
CCOc1ccc(OCC(O)c2ccccc2O)cc1 (stereo not shown)	97
Cc1cccc(CCOc2ccc(F)cc2)c1	83
Oc1ccccc1CCOc1ccccc1	103
Oc1ccccc1C(O)COc1ccc(F)cc1 (stereo not shown)	76
Oc1ccccc1CCOc1ccc(Br)cc1	96
CCC(C)(C)c1ccc(OCCc2ccccc2O)cc1	9
Fc1ccc(OCCc2ccccc2Br)cc1	94
CC(C)c1ccc(OCC(=O)c2ccccc2O)cc1	90
CCc1ccc(OCCc2ccccc2O)cc1	88
Fc1ccc(CCOc2ccccc2OCc2ccccc2)cc1	93
Oc1ccccc1CCOc1ccc(Cl)cc1	88
Fc1ccc(OCCc2ccccc2C(F)(F)F)cc1	87
CCC(C)(C)c1ccc(OCC(=O)c2ccccc2O)cc1	80
CCCc1ccc(OCCc2ccccc2O)cc1	81
COc1ccccc1OCC(O)c1ccccc1O (stereo not shown)	90
Cc1ccc(OCCc2ccccc2O)cc1	108
CC(=O)O[C@@H]1[C@@H](OC(C)=O)[C@@H](OC(C)=O)C(Oc2ccccc2CCOc2ccc(F)cc2)O[C@H]1C (stereo partly shown)	90
COc1ccc(OCCc2ccccc2OC)cc1	89
Oc1ccccc1CCOc1ccc(F)cc1 [Compound 1, 2-[2-(4-fluoro-phenoxy)-ethyl]-phenol]	86
COc1ccccc1C1(COc2ccc(F)cc2)CC1	80
O=[N+]([O-])c1ccc(OCCc2ccccc2O)cc1	91

###

test system: B16 melanocytes; test: Cell viability, MTT reduction test; format: cell-based; conditions: 30 μM, B16, 72 h, Table 2
endpoint label: Viability (MTT) % stimulated control (%)

compound	uom	recorded number
Oc1ccccc1CCOc1ccc(OCc2ccccc2)cc1	%	59
CC(=O)OC[C@H]1OC(Oc2ccccc2CCOc2ccc(F)cc2)[C@H](OC(C)=O)[C@@H](OC(C)=O)[C@@H]1OC(C)=O (stereo partly shown)	%	88
CC(C)c1ccc(OCCc2ccccc2O)cc1	%	86
COc1ccc(OCCc2ccccc2O)cc1	%	97
COc1ccccc1CCOc1ccc(F)cc1	%	87
Oc1ccc(OCCc2ccccc2F)cc1	%	77
CC(C)(C)c1ccc(OCCc2ccccc2O)cc1	%	18
